meta.source: patent US20190309059A1

Molecular target: his-labeled human IL-13 (immunogen A) (human) (UniProt P35225)
Experiment: ELISA, biotin-immunogen A; antibody at 13.33 nM

Binder	OD450 nm
29D9H8 (lead antibody, mouse hybridoma) (antibody, V domains shown, Mouse monoclonal antibody purified from hybridoma supernatant on Protein G) VH: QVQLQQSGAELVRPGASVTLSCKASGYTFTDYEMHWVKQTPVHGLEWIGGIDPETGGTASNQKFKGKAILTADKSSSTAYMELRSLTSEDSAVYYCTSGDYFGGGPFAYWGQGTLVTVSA VL: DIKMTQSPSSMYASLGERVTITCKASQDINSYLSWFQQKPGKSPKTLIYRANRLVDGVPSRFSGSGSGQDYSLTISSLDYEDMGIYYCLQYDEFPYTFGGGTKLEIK	1.6
